assay target: KCNQ2/3 channels (Homo sapiens, UniProt O43525+O43526)
Sequence (O43525 whole entry): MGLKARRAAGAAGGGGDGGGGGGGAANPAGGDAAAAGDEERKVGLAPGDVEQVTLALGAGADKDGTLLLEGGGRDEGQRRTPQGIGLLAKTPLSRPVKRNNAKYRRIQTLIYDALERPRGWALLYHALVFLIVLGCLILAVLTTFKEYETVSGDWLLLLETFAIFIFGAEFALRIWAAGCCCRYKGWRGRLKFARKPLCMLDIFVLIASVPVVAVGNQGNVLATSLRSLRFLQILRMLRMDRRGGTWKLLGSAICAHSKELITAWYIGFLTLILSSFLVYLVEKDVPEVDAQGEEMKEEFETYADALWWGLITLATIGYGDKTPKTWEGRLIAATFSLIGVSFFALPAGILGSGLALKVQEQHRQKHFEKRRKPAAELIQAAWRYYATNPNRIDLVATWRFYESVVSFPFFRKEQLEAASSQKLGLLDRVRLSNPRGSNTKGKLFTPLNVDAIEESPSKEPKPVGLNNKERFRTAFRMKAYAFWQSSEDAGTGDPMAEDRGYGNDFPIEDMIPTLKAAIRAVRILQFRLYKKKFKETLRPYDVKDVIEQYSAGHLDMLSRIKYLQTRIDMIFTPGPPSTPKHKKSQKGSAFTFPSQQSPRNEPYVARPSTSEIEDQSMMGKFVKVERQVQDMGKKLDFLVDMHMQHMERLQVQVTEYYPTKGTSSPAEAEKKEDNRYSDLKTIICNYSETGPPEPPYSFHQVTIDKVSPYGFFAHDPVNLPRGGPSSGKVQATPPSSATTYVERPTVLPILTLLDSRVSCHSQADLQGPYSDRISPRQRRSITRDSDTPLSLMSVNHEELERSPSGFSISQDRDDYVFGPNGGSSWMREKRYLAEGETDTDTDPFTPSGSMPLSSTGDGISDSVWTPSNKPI
Sequence (O43526 whole entry): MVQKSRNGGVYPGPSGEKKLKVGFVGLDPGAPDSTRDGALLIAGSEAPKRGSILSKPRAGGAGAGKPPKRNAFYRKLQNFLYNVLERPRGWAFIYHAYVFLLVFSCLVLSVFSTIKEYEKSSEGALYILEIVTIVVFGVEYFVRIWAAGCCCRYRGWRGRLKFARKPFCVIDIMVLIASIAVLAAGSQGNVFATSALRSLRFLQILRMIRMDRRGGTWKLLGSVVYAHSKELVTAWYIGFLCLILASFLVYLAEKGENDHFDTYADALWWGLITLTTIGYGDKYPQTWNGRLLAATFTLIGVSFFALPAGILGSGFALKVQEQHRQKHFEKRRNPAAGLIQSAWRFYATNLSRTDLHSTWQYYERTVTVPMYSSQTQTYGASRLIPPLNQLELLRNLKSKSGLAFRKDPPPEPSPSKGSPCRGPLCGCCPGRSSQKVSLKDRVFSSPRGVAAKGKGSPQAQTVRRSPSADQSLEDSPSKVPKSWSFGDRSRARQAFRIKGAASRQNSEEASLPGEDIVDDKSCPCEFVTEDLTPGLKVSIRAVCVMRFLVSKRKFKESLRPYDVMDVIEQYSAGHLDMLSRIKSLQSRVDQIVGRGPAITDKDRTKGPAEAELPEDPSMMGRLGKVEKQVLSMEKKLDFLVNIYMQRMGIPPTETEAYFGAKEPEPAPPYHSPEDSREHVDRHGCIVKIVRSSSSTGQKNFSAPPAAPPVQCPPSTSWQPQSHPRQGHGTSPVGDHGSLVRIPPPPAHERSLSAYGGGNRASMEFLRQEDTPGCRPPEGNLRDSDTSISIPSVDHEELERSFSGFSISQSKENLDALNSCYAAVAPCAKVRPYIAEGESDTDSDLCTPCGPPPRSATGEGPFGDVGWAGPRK
observation type: pIC50
# reply with the number alone; pIC50 is -log10 of concentration in mol/L

Reported pIC50 of CC(CN(C)C)C(Oc1cccc2ccccc12)c1cccs1 (stereo not shown) : 5.00

----------
assay target: SERT (Rattus norvegicus, UniProt P31652)
experiment summary: [3H]5-HT uptake by crude synaptosomes
observation type: pIC50
# reply with the number alone; pIC50 is -log10 of concentration in mol/L

Reported pIC50 of CC(CN(C)C)C(Oc1cccc2ccccc12)c1cccs1 (stereo not shown) : 7.35

----------
assay target: serotonin transporter (SERT) (Rattus norvegicus, UniProt P31652)
Sequence (P31652 whole entry): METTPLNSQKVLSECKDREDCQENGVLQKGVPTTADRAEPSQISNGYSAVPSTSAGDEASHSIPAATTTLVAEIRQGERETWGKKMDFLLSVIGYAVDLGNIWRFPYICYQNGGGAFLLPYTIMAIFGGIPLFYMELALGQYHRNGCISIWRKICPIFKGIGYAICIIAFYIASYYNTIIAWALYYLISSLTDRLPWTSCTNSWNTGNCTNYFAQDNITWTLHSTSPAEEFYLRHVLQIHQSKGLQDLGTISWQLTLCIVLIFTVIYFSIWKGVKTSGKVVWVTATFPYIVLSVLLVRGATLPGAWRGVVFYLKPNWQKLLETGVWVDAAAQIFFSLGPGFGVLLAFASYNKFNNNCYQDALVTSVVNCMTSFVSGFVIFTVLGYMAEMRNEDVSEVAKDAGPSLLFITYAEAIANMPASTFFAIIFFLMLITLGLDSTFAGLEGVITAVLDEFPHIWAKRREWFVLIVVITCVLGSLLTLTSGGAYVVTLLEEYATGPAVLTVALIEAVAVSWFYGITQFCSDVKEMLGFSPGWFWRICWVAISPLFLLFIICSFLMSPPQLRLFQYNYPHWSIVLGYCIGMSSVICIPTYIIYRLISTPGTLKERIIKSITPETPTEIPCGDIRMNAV
observation type: pKi
# reply with the number alone; pKi is -log10 of concentration in mol/L

Reported pKi of CC(CN(C)C)C(Oc1cccc2ccccc12)c1cccs1 (stereo not shown) : 7.52
